Target: T1, human VEGF (hVEGF) (human, UniProt P15692 181-395)
T1 construct: also called VEGF-A
T1 sequence: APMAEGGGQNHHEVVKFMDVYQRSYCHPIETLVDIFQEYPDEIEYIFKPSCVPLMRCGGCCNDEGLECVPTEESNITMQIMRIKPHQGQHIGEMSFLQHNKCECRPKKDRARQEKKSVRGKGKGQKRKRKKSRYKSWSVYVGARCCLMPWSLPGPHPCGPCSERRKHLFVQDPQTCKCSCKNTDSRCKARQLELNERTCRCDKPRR
Assay: SPR
Observation Type: Fold improved (relative to WT) (fold)
Quick note: give the figure in fold, leave out the unit.

Ask: Consider the binder G6.31 Y58R.N94A.F83A (Fab, name in Kabat numbering, V domains shown, Fab) VH: EVQLVESGGGLVQPGGSLRLSCAASGFTISDYWIHWVRQAPGKGLEWVAGITPAGGYTRYADSVKGRFTISADTSKNTAYLQMNSLRAEDTAVYYCARFVFFLPYAMDYWGQGTLVTVSS VL: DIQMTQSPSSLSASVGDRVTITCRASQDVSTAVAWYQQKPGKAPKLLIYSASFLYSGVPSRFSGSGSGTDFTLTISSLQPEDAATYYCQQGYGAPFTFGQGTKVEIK and give its measured Fold improved (relative to WT).
Result: 3.9

Ask: Next binder: G6.31 LC-N94A (Fab, V domains shown, Fab) VH: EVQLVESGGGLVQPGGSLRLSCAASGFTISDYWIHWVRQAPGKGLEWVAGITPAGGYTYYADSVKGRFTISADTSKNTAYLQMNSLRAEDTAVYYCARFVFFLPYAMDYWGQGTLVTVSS VL: DIQMTQSPSSLSASVGDRVTITCRASQDVSTAVAWYQQKPGKAPKLLIYSASFLYSGVPSRFSGSGSGTDFTLTISSLQPEDFATYYCQQGYGAPFTFGQGTKVEIK
Result: 0.5

Ask: Next binder: G6.31 HC-Y58R (Fab, name in Kabat numbering, V domains shown, Fab) VH: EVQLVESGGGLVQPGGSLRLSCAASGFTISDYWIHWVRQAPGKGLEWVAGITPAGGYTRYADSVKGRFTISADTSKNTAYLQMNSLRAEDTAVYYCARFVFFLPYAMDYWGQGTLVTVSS VL: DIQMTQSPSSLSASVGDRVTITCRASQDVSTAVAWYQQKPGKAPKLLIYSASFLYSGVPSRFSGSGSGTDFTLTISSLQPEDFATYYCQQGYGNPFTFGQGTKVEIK
Result: 6.9

Ask: Next binder: G6.31 LC-F83A (Fab, V domains shown, Fab) VH: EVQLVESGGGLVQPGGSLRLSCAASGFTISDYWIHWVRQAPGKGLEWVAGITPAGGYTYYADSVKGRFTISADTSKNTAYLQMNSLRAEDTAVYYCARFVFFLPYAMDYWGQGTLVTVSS VL: DIQMTQSPSSLSASVGDRVTITCRASQDVSTAVAWYQQKPGKAPKLLIYSASFLYSGVPSRFSGSGSGTDFTLTISSLQPEDAATYYCQQGYGNPFTFGQGTKVEIK
Result: 4

These data points were gathered from patent US20210115124A1.
